The origin of these recorded values is PubChem BioAssay (NCI).

- Test system: IGROV1 ovarian
- MEASUREMENT NOTES: NCI tumour cell line growth inhibition, 48 h
MEASURED QUANTITY: GI50

# input Which measured GI50 value corresponds to Cc1cc(-c2nc(-c3ccc(OC(F)(F)F)cc3)no2)nn1Cc1ccnc(N2CCN(C3CC3)CC2)c1 ?
# output > 50000 nM

# input Which measured GI50 value corresponds to CN(C)CCN=Cc1c2ccccc2c(=O)n2c1oc1ccccc12 ?
# output 10600 nM

# input Which measured GI50 value corresponds to CCOc1ccc(/C=C/[N+](=O)[O-])cc1 ?
# output 21800 nM

# input Which measured GI50 value corresponds to COc1ccc(Cc2cnc(NC(=O)c3sc4ccccc4c3Cl)s2)cc1 ?
# output 608 nM

# input Which measured GI50 value corresponds to COC(=O)[C@H](CC(C)C)NC(=O)NC(=O)NC(=O)CI ?
# output 2060 nM

# input Which measured GI50 value corresponds to Oc1cc(O)c2c(=S)cc(-c3ccc(Cl)cc3)oc2c1 ?
# output 533 nM
